test system: in vivo angiogenesis, blood vessel count; assay: reduction of blood vessel formation in vivo – HTS, in vivo study (AID 732); details: hits give low values;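 tested at 30 µM in the well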;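 further: zebrafish embryos dosed at one day post fertilization; 0% = reference inhibitor and 100% = plate mean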
measurement label: vessel count % control (%)

CNC[C@H](O)c1cccc(O)c1 : 109
COc1ccc2c(c1)[C@@]13CCCC[C@H]1[C@@H](C2)NCC3 : 78.3
Cc1ccc(C(=O)Nc2ccc(S(=O)(=O)O)c3cc(S(=O)(=O)O)cc(S(=O)(=O)O)c23)cc1NC(=O)c1cccc(NC(=O)Nc2cccc(C(=O)Nc3cc(C(=O)Nc4ccc(S(=O)(=O)O)c5cc(S(=O)(=O)O)cc(S(=O)(=O)O)c45)ccc3C)c2)c1 : 119
COc1c2c(nc3ccccc13)OC(C(C)(O)CO)C2 (centres undefined) : 120
CC(C)CC(NP(=O)(O)O[C@@H]1O[C@@H](C)[C@H](O)[C@@H](O)[C@H]1O)C(=O)NC(Cc1c[nH]c2ccccc12)C(=O)O (some centres undefined) : 118
C[C@]12CC[C@@H](O)CC1CC[C@@H]1[C@@H]2CC[C@]2(C)C(=O)CC[C@@H]12 (some centres undefined) : 104
C1COC(NC(C2CC2)C2CC2)=N1 : 100
C=C(C)C1CC=C(C(=O)O)CC1 (centres undefined) : 109
C=CCN1CCc2c(cc(O)c(O)c2Cl)C(c2ccccc2)C1 (centres undefined) : 121
